This collection of values is drawn from patent US20260248927A1.

- system.tested: [MCL-1]-[compound of formula (I)]—[CRBN/DDB1] (Homo sapiens, UniProt Q07820+Q96SW2)
- Sequence (Q07820 whole entry): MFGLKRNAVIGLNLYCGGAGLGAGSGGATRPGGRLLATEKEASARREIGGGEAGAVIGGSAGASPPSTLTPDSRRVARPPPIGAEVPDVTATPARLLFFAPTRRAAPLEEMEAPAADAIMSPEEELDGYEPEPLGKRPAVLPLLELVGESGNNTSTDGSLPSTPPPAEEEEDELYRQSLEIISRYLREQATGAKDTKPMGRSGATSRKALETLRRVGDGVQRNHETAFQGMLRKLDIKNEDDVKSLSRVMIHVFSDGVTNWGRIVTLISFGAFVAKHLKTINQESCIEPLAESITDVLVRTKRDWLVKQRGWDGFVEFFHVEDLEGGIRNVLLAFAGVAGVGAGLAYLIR
- Sequence (Q96SW2 whole entry): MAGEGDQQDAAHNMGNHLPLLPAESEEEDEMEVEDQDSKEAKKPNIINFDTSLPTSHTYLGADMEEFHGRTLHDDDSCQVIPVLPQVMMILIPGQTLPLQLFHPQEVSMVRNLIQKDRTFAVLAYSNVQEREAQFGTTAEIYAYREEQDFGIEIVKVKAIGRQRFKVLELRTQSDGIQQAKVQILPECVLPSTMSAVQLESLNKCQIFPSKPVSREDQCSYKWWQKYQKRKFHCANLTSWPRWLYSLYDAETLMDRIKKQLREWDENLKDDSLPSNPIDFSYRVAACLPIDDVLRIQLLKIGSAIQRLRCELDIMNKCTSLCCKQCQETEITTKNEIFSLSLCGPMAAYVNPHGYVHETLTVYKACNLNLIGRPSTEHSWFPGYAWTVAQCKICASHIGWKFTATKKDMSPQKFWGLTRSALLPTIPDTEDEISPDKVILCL
- Sequence (Q16531 whole entry partner): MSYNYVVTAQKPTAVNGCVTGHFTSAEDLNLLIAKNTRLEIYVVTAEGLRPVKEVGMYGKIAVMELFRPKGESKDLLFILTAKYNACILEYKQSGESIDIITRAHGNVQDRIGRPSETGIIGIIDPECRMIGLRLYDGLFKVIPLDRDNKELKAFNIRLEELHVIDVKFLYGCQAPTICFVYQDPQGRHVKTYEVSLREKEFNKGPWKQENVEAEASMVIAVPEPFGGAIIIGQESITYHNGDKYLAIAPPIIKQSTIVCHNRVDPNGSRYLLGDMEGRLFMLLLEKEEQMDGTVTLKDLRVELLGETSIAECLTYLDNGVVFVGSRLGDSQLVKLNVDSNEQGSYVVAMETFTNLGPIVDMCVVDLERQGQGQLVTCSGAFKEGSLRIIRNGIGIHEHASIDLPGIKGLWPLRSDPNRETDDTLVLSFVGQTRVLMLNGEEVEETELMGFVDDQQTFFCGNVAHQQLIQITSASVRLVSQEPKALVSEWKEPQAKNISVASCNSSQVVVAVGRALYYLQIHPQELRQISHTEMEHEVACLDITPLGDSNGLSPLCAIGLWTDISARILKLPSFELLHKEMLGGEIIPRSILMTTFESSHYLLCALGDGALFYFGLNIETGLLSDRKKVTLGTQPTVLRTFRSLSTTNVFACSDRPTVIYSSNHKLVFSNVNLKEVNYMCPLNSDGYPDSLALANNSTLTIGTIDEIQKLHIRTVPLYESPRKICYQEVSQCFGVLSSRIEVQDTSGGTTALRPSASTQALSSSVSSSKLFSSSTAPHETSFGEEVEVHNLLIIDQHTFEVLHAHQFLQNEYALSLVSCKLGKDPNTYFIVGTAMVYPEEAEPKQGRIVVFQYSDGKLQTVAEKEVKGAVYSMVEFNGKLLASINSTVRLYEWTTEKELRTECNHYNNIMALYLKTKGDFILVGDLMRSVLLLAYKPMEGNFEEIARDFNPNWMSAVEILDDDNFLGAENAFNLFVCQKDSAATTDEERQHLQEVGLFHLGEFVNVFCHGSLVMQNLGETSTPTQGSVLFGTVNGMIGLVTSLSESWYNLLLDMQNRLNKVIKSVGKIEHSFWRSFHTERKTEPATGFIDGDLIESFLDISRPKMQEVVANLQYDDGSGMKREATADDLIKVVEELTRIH
- test.name: HTRF ternary complex formation assay
- Assay type: binding
- applied.conditions: hMcl-1 and CRBN, 180 min at 25° C.; read-out: HTRF ternary complex Average pEC50 by molecule (converted)
property.name: EC50

[
  {
    "molecule": "Cc1nc2c(NCC(=O)N3CCN(CCn4c(C(=O)O)c(CCCOc5cccc6cc(F)ccc56)c5ccc(Cl)c(-c6c(C)nn(C)c6C)c54)CC3)cccc2cc1N1CCC(=O)NC1=O [Compound 146]",
    "EC50": "< 31.6 nM"
  },
  {
    "molecule": "Cc1nn(C)c(C)c1-c1c(Cl)ccc2c(CCCOc3cccc4cc(F)ccc34)c(C(=O)O)n(CCN3CCN(C(=O)COc4cccc5c4C(C)N(C4CCC(=O)NC4=O)C5=O)CC3)c12 (stereo not drawn) [Compound 15]",
    "EC50": "< 316 nM"
  }
]

Please examine the following record next.
# input I have this molecule here, Cc1nn(C)c(C)c1-c1c(Cl)ccc2c(CCCOc3cccc4cc(F)ccc34)c(C(=O)O)n(CCN3CCN(C(=O)COc4cc(N(C)C)cc5c4CN(C4CCC(=O)NC4=O)C5=O)CC3)c12 (stereo not drawn) [Compound 13] , and I need its recorded EC50.
# output < 316 nM
